Numbers sourced from ChEMBL document CHEMBL1144487.

Test Protocol: Differential index, LC50 for rat NRK 52E cells to LC50 for rat H-ras transformed NRK H/1.2 cells
Assay type: ADME, cell-based
Condition Details: NRK 52E cells versus H-ras transformed NRK H/1.2 cells
Would you kindly list selectivity ratio for each of these compounds?
Just the number, please, no unit attached.

Q: Look at this compound and give its reported selectivity ratio. "CC(=O)NC1=CC(=O)c2ccc(-c3[nH]c(C(=O)O)cc4c5ccccc5nc3-4)nc2C1=O"
A: 1.4

Q: Lookup "COC(=O)c1nc(-c2ccc3c(n2)C(=O)C(NC(=O)CCl)=CC3=O)c2[nH]c3ccccc3c2c1C"
A: 1

Q: # repeat for "COC(=O)c1[nH]c(-c2ccc3c(n2)C(=O)C(NC(C)=O)=CC3=O)c2nc3ccccc3c-2c1C"
A: 1.3

Q: What about this compound? "CCCCOC(=O)c1cc2c([nH]c3ccccc32)c(-c2ccc3c(n2)C(=O)C(NC(=O)CCC)=CC3=O)n1"
A: 1.6

---

I'd be grateful if you could share measured selectivity ratio for these entries.
Test Protocol: Differential index, LC50 for rat NRK 52E cells to LC50 for rat H-ras transformed NRK H/1.2 cells
Assay type: ADME, cell-based
Condition Details: NRK 52E cells versus H-ras transformed NRK H/1.2 cells
Returns: the value as a bare number; no unit string appended.

Q: Fill in: selectivity ratio of "CC(=O)NC1=CC(=O)c2ccc(-c3[nH]c(CO)cc4c5ccccc5nc3-4)nc2C1=O" is ___
A: 1.2

Q: Could you do the same for "CC(C)CCOC(=O)c1cc2c([nH]c3ccccc32)c(-c2ccc3c(n2)C(=O)C(NC(=O)CCl)=CC3=O)n1" , please?
A: 1

Q: What do we get for "COC(=O)c1cc2c([nH]c3ccccc32)c(-c2ccc3c(n2)C(=O)C(NC(=O)C(C)C)=CC3=O)n1" ?
A: 1.1

Q: Another compound: "CC(=O)NC1=CC(=O)c2ccc(-c3nc(C(=O)OCCC(C)C)cc4c3[nH]c3ccccc34)nc2C1=O"
A: 1.1

Q: Also "CCCC(=O)NC1=CC(=O)c2ccc(-c3nc(C(=O)OC)c(C)c4c3[nH]c3ccccc34)nc2C1=O" ?
A: 0.8

Q: Now the compound "CCCC(=O)NC1=CC(=O)c2ccc(-c3nc(C(=O)OCCC(C)C)cc4c3[nH]c3ccccc34)nc2C1=O"
A: 2.7

Q: Quick one: "CCCCOC(=O)c1cc2c([nH]c3ccccc32)c(-c2ccc3c(n2)C(=O)C(NC(=O)C(C)C)=CC3=O)n1"
A: 1.5

Q: Record: "CCOC(=O)c1cc2c([nH]c3ccccc32)c(-c2ccc3c(n2)C(=O)C(NC(C)=O)=CC3=O)n1"
A: 0.8

---

Provide the reported log10 of CC50 of each item.
Test Protocol: Cytotoxicity against mouse 3LL cells after 5 days
Format: cell-based
Condition Details: 120 h, read-out: LC50 (the source's name)
Log10 applied to CC50; unit prior to transform: µM.

Q: What value of log10 of CC50 has been reported for the following compound? "CC(=O)NC1=CC(=O)c2ccc(C(=O)O)nc2C1=O"
A: 1.41

Q: Now consider "Cc1ccc2c(n1)C(=O)C(NC(=O)CCl)=CC2=O" and answer again.
A: 0.36

Q: Consider next the compound "NC1=CC(=O)c2ccc(-c3[nH]ccc4c5ccccc5nc3-4)nc2C1=O" in the same way.
A: -0.60

Q: Moving on to "O=Cc1ccc2c(n1)C(=O)C(NC(=O)CCl)=CC2=O"
A: 0.32

Q: Same read-out for "CCCCOC(=O)c1cc2c([nH]c3ccc(F)cc32)c(-c2ccc3c(n2)C(=O)C(NC(C)=O)=CC3=O)n1" ?
A: 0.32

Q: One more compound: "CC(=O)NC1=CC(=O)c2ccc(-c3nc(C(=O)OCCN(C)C)cc4c3[nH]c3ccccc34)nc2C1=O"
A: -0.30

Q: // next record "COC(=O)c1nc(-c2ccc3c(n2)C(=O)C(NC(=O)CCl)=CC3=O)c2[nH]c3ccccc3c2c1C"
A: 0.30

Q: What about "CCCC(=O)NC1=CC(=O)c2ccc(-c3nc(C(=O)OC)c(C)c4c3[nH]c3ccccc34)nc2C1=O" ?
A: -0.09

Q: Moving on to the next compound: "CCCC(=O)NC1=CC(=O)c2ccc(C)nc2C1=O"
A: 0.40

Q: Do the same for "CC(=O)NC1=CC(=O)c2ccc(-c3nc(C(=O)OCCC(C)C)cc4c3[nH]c3ccccc34)nc2C1=O" please
A: 0.23

Q: Can you handle "COC(=O)c1cc2c([nH]c3ccccc32)c(-c2ccc3c(n2)C(=O)C(NC(C)=O)=CC3=O)n1" next?
A: -0.08

Q: Continue with "CC(=O)NC1=CC(=O)c2cc(C)cnc2C1=O"
A: 0.00

Q: And for "Cc1ccc2c(n1)C(=O)C(NCCCCO)=CC2=O" ?
A: 0.58

Q: Queued: "Cc1ccc2c(n1)C(=O)C(NC(=O)C(C)C)=CC2=O"
A: -0.15

Q: Would you mind doing "CCOC(=O)c1cc2c([nH]c3ccccc32)c(-c2ccc3c(n2)C(=O)C(NC(C)=O)=CC3=O)n1" as well?
A: 0.51

Q: Could you do the same for "CC(=O)NC1=CC(=O)c2ccc(-c3[nH]c(C(=O)O)cc4c5ccccc5nc3-4)nc2C1=O" , please?
A: -0.40

Q: Can you check "NC1=CC(=O)c2ccc(C=O)nc2C1=O" next?
A: 0.36

Q: Please do the same for "CC(=O)NC1=CC(=O)c2ccc(-c3nc(C(=O)OC4CCCCC4)cc4c3[nH]c3ccccc34)nc2C1=O" as well.
A: 0.00

Q: What about "CCCC(=O)NC1=CC(=O)c2ccc(-c3nc(C(=O)OC)cc4c3[nH]c3ccccc34)nc2C1=O" ?
A: 0.11

Q: Same read-out for "COC(=O)c1cc2c([nH]c3ccccc32)c(-c2ccc3c(n2)C(=O)C(NC(=O)C(C)C)=CC3=O)n1" ?
A: 0.11

Q: Next up: "CC(=O)NC1=CC(=O)c2ccc(-c3[nH]c(CO)cc4c5ccccc5nc3-4)nc2C1=O"
A: -0.36

Q: Again, but for "CC(=O)NC1=CC(=O)c2ccc(C)nc2C1=O"
A: 0.30

Q: Same again, this time with "CC(=O)NC1=CC(=O)c2ccc(-c3[nH]c(C(N)=O)cc4c5ccccc5nc3-4)nc2C1=O"
A: -0.68

Q: Subsequent entry: "CCCCOC(=O)c1cc2c([nH]c3ccccc32)c(-c2ccc3c(n2)C(=O)C(NC(=O)CCC)=CC3=O)n1"
A: 0.36

Q: What about "Cc1ccc2c(n1)C(=O)C(N)=CC2=O" ?
A: -0.10

Q: Subsequent entry: "CC(=O)NC1=CC(=O)c2ccc(-c3[nH]ccc4c5ccccc5nc3-4)nc2C1=O"
A: 0.48

Q: Request: "CC(C)CCOC(=O)c1cc2c([nH]c3ccccc32)c(-c2ccc3c(n2)C(=O)C(NC(=O)CCl)=CC3=O)n1"
A: 0.51

Q: Can you check "CCCCOC(=O)c1cc2c([nH]c3ccccc32)c(-c2ccc3c(n2)C(=O)C(NC(=O)C(C)C)=CC3=O)n1" next?
A: -0.05

---

For each entry below, report its CC50 at 120 h value.
Test Protocol: Cytotoxicity against rat NRK 52E cells after 5 days
Assay type: cell-based
Condition Details: read-out: LC50
Use nM as the unit, but write only the number.

Q: Item "CC(=O)NC1=CC(=O)c2ccc(-c3nc(C(=O)OCCC(C)C)c(C)c4c3[nH]c3ccccc34)nc2C1=O" has what recorded CC50 at 120 h?
A: 4160

Q: Lookup "CC(=O)NC1=CC(=O)c2ccc(-c3nc(C(=O)OC4CCCCC4)cc4c3[nH]c3ccccc34)nc2C1=O"
A: 700

Q: Likewise for "CCCCOC(=O)c1cc2c([nH]c3ccccc32)c(-c2ccc3c(n2)C(=O)C(NC(=O)CCC)=CC3=O)n1" ?
A: 660

Q: Can you handle "CC(=O)NC1=CC(=O)c2ccc(-c3[nH]ccc4c5ccccc5nc3-4)nc2C1=O" next?
A: 400

---

Assignment: determine reported log10 of CC50 for the given compounds.
Test Protocol: Cytotoxicity against mouse 3LL cells after 5 days
Format: cell-based
Condition Details: 120 h, read-out: LC50 (the source's name)
Please keep in mind that the values are log10 of CC50 expressed in nM.

Q: Please look up its log10 of CC50: "CC(=O)NC1=CC(=O)c2ccc(-c3nc(C(=O)OCCN(C)C)c(C)c4c3[nH]c3ccccc34)nc2C1=O"
A: 2.68

Q: Record: "CCCC(=O)NC1=CC(=O)c2ccc(-c3nc(C(=O)OCCC(C)C)cc4c3[nH]c3ccccc34)nc2C1=O"
A: 3.38

Q: Do the same for "CC(C)C(=O)NC1=CC(=O)c2ccc(C=O)nc2C1=O" please
A: 3.00

Q: Another compound: "CC(=O)NC1=CC(=O)c2ccc(C=O)nc2C1=O"
A: 3.08

Q: Same again, this time with "CC(=O)NC1=CC(=O)c2ccc(-c3nc(C(=O)OCCC(C)C)c(C)c4c3[nH]c3ccccc34)nc2C1=O"
A: 3.87

Q: Item: "CCCC(=O)NC1=CC(=O)c2ccc(C=O)nc2C1=O"
A: 3.40

Q: Please do the same for "CCCCOC(=O)c1cc2c([nH]c3ccccc32)c(-c2ccc3c(n2)C(=O)C(NC(=O)CCl)=CC3=O)n1" as well.
A: 3.36

Q: Now the same for "COC1=CC(=O)c2ccc(C)nc2C1=O"
A: 3.87
